Origin of values: PubChem BioAssay (NCI)

Test system: KM12 colon
Assay: NCI-60 one-dose screen, 48 h (100 = growth as untreated, 0 = no growth, -100 = all killed)
Conditions: 10 µM unless noted
About 83,000 compounds went through this panel and 20% of them were active in at least one assay; those are over-represented in the sample as a whole.
Quick rule for you: growth at 30% or higher means TRUE, lower means FALSE.

// below: answered molecules
Ask: Determine whether measured growth meets or exceeds 30% for Cc1ccc(NC(=O)Nc2ccc(Nc3ncnc4sc5c(c34)CCOC5)cc2)cc1Cl
Result: TRUE

Ask: Determine whether measured growth meets or exceeds 30% for COCCN1CCN(Cc2ccc(-c3n[nH]c4c3C(=O)c3c(NC(=O)NN5CCOCC5)cccc3-4)cc2)CC1
Result: FALSE

Ask: Determine whether measured growth meets or exceeds 30% for Cc1ccc(-c2nc3ccc(Cl)cn3c2NC2CCCCC2)o1
Result: TRUE

Ask: Determine whether measured growth meets or exceeds 30% for COC(=O)[C@H](C)NC(=O)[C@@H](OC)[C@@H]1Cc2cc3cc(OC4CC(OC5CC(O)C(O)C(C)O5)C(O)C(C)O4)c(C)c(O)c3c(O)c2C(=O)[C@H]1OC1CC(OC2CC(OC3CC(C)(O)C(O)C(C)O3)C(O)C(C)O2)C(O)C(C)O1 (some centres undefined)
Result: FALSE

Ask: Determine whether measured growth meets or exceeds 30% for O=C(Cn1c(=O)ccn(CCCCCCCCOc2ccc(Br)cc2)c1=O)Nc1ccc(Oc2ccc(Cl)cc2)cc1
Result: TRUE

---
Ask: Determine whether measured growth meets or exceeds 30% for COC(=O)[C@@H](NC(=O)[C@@H](OC)[C@@H]1Cc2cc3cc(OC4CC(OC5CC(O)C(O)C(C)O5)C(O)C(C)O4)c(C)c(O)c3c(O)c2C(=O)[C@H]1OC1CC(OC2CC(OC3CC(C)(O)C(O)C(C)O3)C(O)C(C)O2)C(O)C(C)O1)C(C)C (some centres undefined)
Result: FALSE

Ask: Determine whether measured growth meets or exceeds 30% for O=C(NO)c1ccc(Cn2c(=O)n(-c3ccccc3F)c(=O)c3ccccc32)cc1
Result: FALSE

Ask: Determine whether measured growth meets or exceeds 30% for COc1ccc(-c2cc3c(oc2=O)-c2ccccc2OC3OC(C)=O)cc1 (centres undefined)
Result: TRUE

---

Test system: BT-549 breast
Assay: NCI-60 one-dose screen, 48 h (100 = growth as untreated, 0 = no growth, -100 = all killed)
Details: 10 µM unless noted
About 83,000 compounds went through this panel and 20% of them were active in at least one assay; those are over-represented in the sample as a whole. Activity calls are given as the source filed them. How the source made its calls: active means growth percent below 10; inactive means the rest.
// reported growth for each item listed

Examples with answers:
Ask: Read the entry Cc1sc2c(c1C)c(=O)nc1c(-c3nc4ccccc4s3)n[nH]n12 and write its reported growth.
Result: 101% (inactive)

Ask: Read the entry CO[C@H]1C[C@@H]2CC[C@@H](C)[C@@](O)(O2)C(=O)C(=O)N2CCCC[C@H]2C(=O)O[C@H]([C@H](C)C[C@@H]2CC[C@@H](O)[C@H](OC)C2)CC(=O)[C@H](C)/C=C(\C)[C@@H](O)[C@@H](OC)C(=O)[C@H](C)C[C@H](C)\C=C/C=C/C=C/1C and write its reported growth.
Result: 20.3% (inactive)

Ask: Read the entry CCc1ccc(/C=C/c2ccc(O)c3ncccc23)[n+](C)c1 and write its reported growth.
Result: 65.9% (inactive)

Here's the next entry for you.
Ask: Read the entry Nc1cc2c(cc1Br)-c1c(C(=O)O)cccc1C2O (centres undefined) and write its reported growth.
Result: 114% (inactive)

---

Tested on: K-562 leukemia
Assay: NCI-60 one-dose screen, 48 h (100 = growth as untreated, 0 = no growth, -100 = all killed)
Conditions: 10 µM unless noted
This is part of a sample that, as a whole, favours compounds with a hit. Of some 83,000 tested, about 20% had one in any assay.
// reported growth for each item listed
Dear colleague, please return just the value in %, with no unit written.

Ask: Read the entry Nc1nc(Nc2ccccc2)c(C=Nc2ccccc2)c(=O)[nH]1 and write its reported growth.
Result: 90.4

Ask: Read the entry COc1ncc(-c2ccc3nccc(-c4ccnnc4)c3c2)cc1NS(=O)(=O)c1ccc(F)cc1F and write its reported growth.
Result: 3.76

Ask: Read the entry Cc1nc(NC(=O)N2CCC[C@H]2C(N)=O)sc1-c1ccnc(C(C)(C)C(F)(F)F)c1 and write its reported growth.
Result: 80.9

---
Ask: Read the entry COc1cnc2c(c1)C(=O)c1c-2n(CCCN2CCOCC2)c(=O)c2cc(Cl)ccc12 and write its reported growth.
Result: 27.5

Ask: Read the entry CO[C@@H](C)Cn1c(=O)n(C)c2cnc3ccc(-c4cncc(C(C)(C)O)c4)cc3c21 and write its reported growth.
Result: 14.8

Ask: Read the entry CN1CCC(CNc2ccc3ncc(-c4cccc(OC(F)(F)F)c4)n3n2)CC1 and write its reported growth.
Result: -47.3

Ask: Read the entry CCN1CCN(Cc2ccc(Cc3ncc(F)c(-c4cc(F)c5nc(C)n(C(C)C)c5c4)n3)nc2)CC1 and write its reported growth.
Result: -29.2

Ask: Read the entry Cn1cc(-c2[nH]c3cc(NC(=O)[C@H](N)C4CCCCC4)cc4c3c2C=NNC4=O)cn1 and write its reported growth.
Result: -59.6

Ask: Read the entry CCN(CC)CCNC(=O)c1c(C)[nH]c(/C=C2\C(=O)Nc3ccc(F)cc32)c1C and write its reported growth.
Result: -22.3

Ask: Read the entry CCN1CCN(c2nc(C)cc(N(CCCNc3ccnc4cc(Cl)ccc34)Cc3ccc4c(c3)OCO4)n2)CC1 and write its reported growth.
Result: -10.5

Ask: Read the entry Clc1ccc(C(Cn2ccnc2)OCc2ccsc2Cl)c(Cl)c1 (stereo unspecified) and write its reported growth.
Result: 16

---

Tested on: MDA-MB-231 breast
Assay: NCI-60 one-dose screen, 48 h
Conditions: 10 µM unless noted
Compounds without any hit were thinned out: in the full panel of roughly 83,000, 20% have a hit. Calls of active or inactive are those of the source. How the source made its calls: active means growth percent below 10; inactive means the rest.
Outcome (select one): y (active), n (inactive)

Ask: State the result this test recorded for C/C(=C(/c1ccc(Cl)cc1)c1ccc(OCCN2CCCC2)cc1)c1ccccc1 .
Result: n

---
Ask: State the result this test recorded for CC/C(=C(/c1ccc(Cl)cc1)c1ccc(OCCN2CCCCC2)cc1)c1ccc(Cl)cc1 .
Result: n

Ask: State the result this test recorded for COc1cc2ncnc(Nc3cccc(Cl)c3F)c2cc1OC(=O)N1CCN(C)C[C@H]1C .
Result: n

Ask: State the result this test recorded for C/C(=N\NC(=O)Cn1c(-c2ccc(S(C)(=O)=O)cc2)nc2ccccc21)c1ccc(Cl)cc1 .
Result: n

---

System: SNB-75 CNS
Test: NCI-60 one-dose screen, 48 h (100 = growth as untreated, 0 = no growth, -100 = all killed)
Conditions: 10 µM unless noted
The panel holds about 83,000 compounds, 20% with a hit somewhere; the sample as a whole holds those more often.
observed_property: growth (%)
Dear colleague, please return just the value in %, with no unit written.

Ask: Read the entry CC(C)CC(=O)Nc1n[nH]c2c1CN(C(=O)C1CCN(C)CC1)C2(C)C and write its reported growth.
Result: -19.8

Ask: Read the entry COc1ccc(-n2c(=O)c3ccccc3n(Cc3ccc(C(=O)NO)cc3)c2=O)cc1 and write its reported growth.
Result: 11

Ask: Read the entry NC1(c2ccc(-c3nc4ccn5c(=O)[nH]nc5c4cc3-c3ccccc3)cc2)CCC1 and write its reported growth.
Result: -8.24

Ask: Read the entry CC12O[C@H](C[C@@H](OC(=O)CCC(=O)O)[C@H]1O)n1c3ccccc3c3c4c(c5c6ccccc6n2c5c31)C(=O)NC4=O and write its reported growth.
Result: -8.7

Ask: Read the entry O=C1CC(c2cccc(F)c2)c2c(n[nH]c2-c2ccc(Cl)cc2)N1 (configuration not stated) and write its reported growth.
Result: 97.3

Ask: Read the entry COc1ccc2c(CCCC(c3ccccc3)c3ccccc3)c3[n+](cc2c1OC)CCc1cc2c(cc1-3)OCO2 and write its reported growth.
Result: -19.1

Ask: Read the entry CCOc1cccc(/C=N/NC(=O)c2ccccc2Nc2ccnc(C(F)(F)F)c2)c1O and write its reported growth.
Result: 14.1

Ask: Read the entry ClCc1ccc(-c2ccc(Cn3cnc4c(Cl)nc(Cl)nc43)cc2)cc1 and write its reported growth.
Result: -26.9

Here's the next entry for you.
Ask: Read the entry C[C@@]1(C(=O)Nc2ccc(F)nc2)CCCN1c1nc(Nc2cc(C3CC3)[nH]n2)c2cccn2n1 and write its reported growth.
Result: -53.2

---

Test system: SF-295 CNS
Test: NCI-60 one-dose screen, 48 h (100 = growth as untreated, 0 = no growth, -100 = all killed)
Conditions: 10 µM unless noted
Compounds without any hit were thinned out: in the full panel of roughly 83,000, 20% have a hit.
observed_property: growth (%)
Dear colleague, please return just the value in %, with no unit written.

Examples with answers:
Ask: Read the entry C=C1[C@@H](O)C[C@H]2C(C)(C)C[C@H](Cl)C[C@]2(C)[C@H]1C[C@H](O)[C@H]1CC(=O)NC1=O and write its reported growth.
Result: -29.2

Ask: Read the entry O=C(NOC[C@H](O)CO)c1ccc(F)c(F)c1Nc1ccc(I)cc1F and write its reported growth.
Result: 75

Ask: Read the entry O=C(Cn1ccnc1)Nc1ccc(-c2nc3ccccc3s2)cc1 and write its reported growth.
Result: 65.5

Ask: Read the entry CCOC(=O)Sc1ncnc2nc[nH]c12 and write its reported growth.
Result: 36.8

Ask: Read the entry CCCS(=O)(=O)Nc1ccc(F)c(C(=O)c2c[nH]c3ncc(-c4ccc(Cl)cc4)cc23)c1F and write its reported growth.
Result: 7.92

Here's the next entry for you.
Ask: Read the entry COc1cc2c(cc1OCCCCCCN1CCN(c3ncnc4ccccc34)CC1)N=CC1CCCN1C2=O (stereo unspecified) and write its reported growth.
Result: -45.5
